Recorded microsomal CLint at 1 μM by entry
- PROCEDURE_SUMMARY: CLint estimates using human liver microsomes
- Assay type: in vitro ADME
- PARTICULARS: pH 7.4, read-out: HLM activity (HLM CLint)
Counter-ions that a name gives are not always drawn.

COMPOUND: CN1CCN(c2ccc(Nc3ncc4c(=O)n(-c5c(Cl)cccc5Cl)ccc4n3)cc2)CC1 [Example 15]
microsomal CLint at 1 μM: > 20 µL/min/mg

COMPOUND: O=c1c2cnc(Nc3ccc(N4CCNCC4)c(Cl)c3)nc2ccn1-c1c(Cl)cccc1Cl [Example 27]
microsomal CLint at 1 μM: ≤ 20 µL/min/mg

COMPOUND: O=c1c2cnc(Nc3ccc(N4CCNCC4)c(F)c3)nc2ccn1-c1c(Cl)cccc1Cl [Example 29]
microsomal CLint at 1 μM: ≤ 20 µL/min/mg

COMPOUND: O=c1c2cnc(Nc3ccc(N4CCNCC4)c(CO)c3)nc2ccn1-c1c(Cl)cccc1Cl [Example 18]
microsomal CLint at 1 μM: ≤ 20 µL/min/mg

COMPOUND: CNCCOc1ccc(Nc2ncc3c(=O)n(-c4c(Cl)cccc4Cl)ccc3n2)cc1 [Example 16, HCl]
microsomal CLint at 1 μM: ≤ 20 µL/min/mg

COMPOUND: Cc1cn(-c2c(Cl)cccc2Cl)c(=O)c2cnc(Nc3ccc(N4CCNCC4)cc3)nc12 [Example 2]
microsomal CLint at 1 μM: ≤ 20 µL/min/mg

COMPOUND: O=c1c2cnc(Nc3ccc(N4CCNCC4)cc3)nc2c(-c2cccnc2)cn1-c1c(Cl)cccc1Cl [Example 23]
microsomal CLint at 1 μM: > 20 µL/min/mg

COMPOUND: O=c1c2cnc(Nc3ccc(N4CCNCC4)cc3)nc2ccn1-c1c(Cl)cccc1Cl [Example 1]
microsomal CLint at 1 μM: ≤ 20 µL/min/mg

----------
This section presents molecules with their documented microsomal CLint at 1 μM values.
- PROCEDURE_SUMMARY: CLint estimates using human liver microsomes
- Assay type: in vitro ADME
- PARTICULARS: pH 7.4, read-out: HLM activity (HLM CLint)
Structures can show the parent of a compound that is named as a salt.
MEASURED_ENDPOINT: microsomal CLint at 1 μM

MOLECULE: CNCc1cc(Nc2ncc3c(=O)n(-c4c(Cl)cccc4Cl)ccc3n2)ccc1N1CCOCC1
ENDPOINT_RESULT: ≤ 20 µL/min/mg
//
MOLECULE: O=c1c2cnc(Nc3ccc(N4CCNCC4)cc3)nc2ccn1-c1cccnc1Cl
ENDPOINT_RESULT: ≤ 20 µL/min/mg
//
MOLECULE: NCc1cccc(Nc2ncc3c(=O)n(-c4c(Cl)cccc4Cl)ccc3n2)c1
ENDPOINT_RESULT: > 20 µL/min/mg
//
MOLECULE: NCC#Cc1cn(-c2c(Cl)cccc2Cl)c(=O)c2cnc(Nc3ccc(N4CCOCC4)cc3)nc12
ENDPOINT_RESULT: > 20 µL/min/mg
//
MOLECULE: CN1CCN(c2cccc(Nc3ncc4c(=O)n(-c5c(Cl)cccc5Cl)ccc4n3)c2)CC1
ENDPOINT_RESULT: > 20 µL/min/mg
//
MOLECULE: O=c1c2cnc(Nc3ccc(N4CCNCC4)cc3)nc2c(Br)cn1-c1c(Cl)cccc1Cl
ENDPOINT_RESULT: ≤ 20 µL/min/mg
//
MOLECULE: CN(C)CCc1ccc(Nc2ncc3c(=O)n(-c4c(Cl)cccc4Cl)ccc3n2)cc1 [Example 11, HCl]
ENDPOINT_RESULT: > 20 µL/min/mg
//
MOLECULE: CC(=O)N1CCN(c2ccc(Nc3ncc4c(=O)n(-c5c(Cl)cccc5Cl)ccc4n3)cc2)CC1
ENDPOINT_RESULT: ≤ 20 µL/min/mg

----------
- PROCEDURE_SUMMARY: Human hepatocyte assay CLint
- Assay type: in vitro ADME
- PARTICULARS: hepatocytes
Where a name gives a salt, the structure may show the parent alone.

MOLECULE: CNCc1cc(Nc2ncc3c(=O)n(-c4c(Cl)cccc4Cl)ccc3n2)ccc1N1CCOCC1 [Example 20]
hepatocyte CLint: < 20 µL/min/1e6 cells
--
MOLECULE: Cc1cc(Nc2ncc3c(=O)n(-c4c(Cl)cccc4Cl)ccc3n2)ccc1N1CCNCC1 [Example 7]
hepatocyte CLint: < 20 µL/min/1e6 cells
--
MOLECULE: CN1CCN(c2ccc(Nc3ncc4c(=O)n(-c5c(Cl)cccc5Cl)ccc4n3)cc2CO)CC1 [Example 8]
hepatocyte CLint: < 20 µL/min/1e6 cells
--
MOLECULE: O=c1c2cnc(Nc3ccc(N4CCNCC4)c(CO)c3)nc2ccn1-c1c(Cl)cccc1Cl [Example 18]
hepatocyte CLint: < 20 µL/min/1e6 cells
--
MOLECULE: COc1cc(Nc2ncc3c(=O)n(-c4c(Cl)cccc4Cl)ccc3n2)ccc1N1CCNCC1 [Example 13, HCl]
hepatocyte CLint: < 20 µL/min/1e6 cells

----------
- PROCEDURE_SUMMARY: CLint estimates using human liver microsomes
- Assay type: in vitro ADME
- PARTICULARS: pH 7.4, read-out: HLM activity (HLM CLint)
Where a name gives a salt, the structure may show the parent alone.
// values below are reported microsomal CLint at 1 μM

COMPOUND: O=c1c2cnc(Nc3ccc(N4CCN(CCO)CC4)cc3)nc2ccn1-c1c(Cl)cccc1Cl
microsomal CLint at 1 μM: > 20 µL/min/mg

COMPOUND: Cc1cc(Nc2ncc3c(=O)n(-c4c(Cl)cccc4Cl)cc(C#CCO)c3n2)ccc1N1CCNCC1
microsomal CLint at 1 μM: ≤ 20 µL/min/mg

COMPOUND: COc1cc(Nc2ncc3c(=O)n(-c4c(Cl)cccc4Cl)ccc3n2)ccc1N1CCNCC1 [Example 13, HCl]
microsomal CLint at 1 μM: ≤ 20 µL/min/mg

COMPOUND: CN1CCN(c2ccc(Nc3ncc4c(=O)n(-c5c(Cl)cccc5Cl)ccc4n3)cn2)CC1
microsomal CLint at 1 μM: > 20 µL/min/mg

----------
- MEASUREMENT_TARGET: Wee-1 kinase (Homo sapiens (Human), UniProt P30291)
- Sequence (P30291 whole entry): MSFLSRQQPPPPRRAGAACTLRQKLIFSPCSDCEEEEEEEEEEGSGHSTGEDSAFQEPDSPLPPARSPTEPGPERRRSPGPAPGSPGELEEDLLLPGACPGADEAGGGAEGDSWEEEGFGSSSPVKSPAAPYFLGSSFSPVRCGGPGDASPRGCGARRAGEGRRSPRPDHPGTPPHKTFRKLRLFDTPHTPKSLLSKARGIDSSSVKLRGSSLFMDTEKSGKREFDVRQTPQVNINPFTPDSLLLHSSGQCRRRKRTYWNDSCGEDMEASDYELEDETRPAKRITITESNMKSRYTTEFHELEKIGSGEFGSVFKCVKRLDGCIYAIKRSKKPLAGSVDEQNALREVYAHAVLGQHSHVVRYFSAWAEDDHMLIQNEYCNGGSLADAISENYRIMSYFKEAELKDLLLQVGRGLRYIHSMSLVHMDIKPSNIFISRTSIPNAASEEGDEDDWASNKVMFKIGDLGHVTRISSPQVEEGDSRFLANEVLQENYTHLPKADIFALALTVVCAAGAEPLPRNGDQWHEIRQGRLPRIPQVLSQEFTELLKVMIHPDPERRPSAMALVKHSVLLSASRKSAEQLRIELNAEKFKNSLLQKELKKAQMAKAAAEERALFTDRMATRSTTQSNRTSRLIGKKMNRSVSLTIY
- PROCEDURE_SUMMARY: Measurement of Wee-1 kinase activity (ADP-Glo)
- Assay type: biochemical
- PARTICULARS: read-out: Wee-1 IC50 activity
- Text: Method 1: Measurement of Wee-1 kinase activity In the measurement of Wee-1 activity, a commercial peptide Poly(Lys Tyr(4:1)) hydrobromide was purchased from Sigma Aldrich and used as the substrate. Activated Wee-1 kinase was purchased from Invitrogen (PV3817) and an ADP-Glo luminescent kit was purchased from Promega. […] Luminescence from each well was detected using the Biotek Synergy4 HD plate reader and the percentage inhibition of kinase activity calculated for each inhibitor tested. […]
Where a name gives a salt, the structure may show the parent alone.

MOLECULE: O=c1c2cnc(Nc3ccc(N4CCNCC4)cc3)nc2ccn1-c1c(Cl)cccc1Cl
IC50: 10 to 200 nM
--
MOLECULE: CN1CCN(c2ccc(Nc3ncc4c(=O)n(-c5c(Cl)cccc5Cl)ccc4n3)cc2CO)CC1
IC50: < 10 nM
--
MOLECULE: CC(=O)Nc1cn(-c2c(Cl)cccc2Cl)c(=O)c2cnc(Nc3ccc(N4CCNCC4)cc3)nc12
IC50: > 200 nM
--
MOLECULE: O=c1c2cnc(Nc3ccc(N4CCNCC4)cc3)nc2ccn1-c1cccnc1Cl
IC50: > 200 nM
--
MOLECULE: O=c1c2cnc(Nc3cc(F)c(N4CCNCC4)c(F)c3)nc2ccn1-c1c(Cl)cccc1Cl
IC50: 10 to 200 nM
--
MOLECULE: Cc1cn(-c2c(Cl)cccc2Cl)c(=O)c2cnc(Nc3ccc(N4CCNCC4)cc3)nc12
IC50: < 10 nM
--
MOLECULE: CNCc1cc(Nc2ncc3c(=O)n(-c4c(Cl)cccc4Cl)ccc3n2)ccc1N1CCOCC1
IC50: < 10 nM
--
MOLECULE: COc1cc(Nc2ncc3c(=O)n(-c4c(Cl)cccc4Cl)ccc3n2)ccc1N1CCNCC1 [Example 13, HCl]
IC50: < 10 nM

----------
- MEASUREMENT_TARGET: human ether a go-go related gene (hERG) K+ channel (Homo sapiens (Human), UniProt Q12809)
- Sequence (Q12809 whole entry): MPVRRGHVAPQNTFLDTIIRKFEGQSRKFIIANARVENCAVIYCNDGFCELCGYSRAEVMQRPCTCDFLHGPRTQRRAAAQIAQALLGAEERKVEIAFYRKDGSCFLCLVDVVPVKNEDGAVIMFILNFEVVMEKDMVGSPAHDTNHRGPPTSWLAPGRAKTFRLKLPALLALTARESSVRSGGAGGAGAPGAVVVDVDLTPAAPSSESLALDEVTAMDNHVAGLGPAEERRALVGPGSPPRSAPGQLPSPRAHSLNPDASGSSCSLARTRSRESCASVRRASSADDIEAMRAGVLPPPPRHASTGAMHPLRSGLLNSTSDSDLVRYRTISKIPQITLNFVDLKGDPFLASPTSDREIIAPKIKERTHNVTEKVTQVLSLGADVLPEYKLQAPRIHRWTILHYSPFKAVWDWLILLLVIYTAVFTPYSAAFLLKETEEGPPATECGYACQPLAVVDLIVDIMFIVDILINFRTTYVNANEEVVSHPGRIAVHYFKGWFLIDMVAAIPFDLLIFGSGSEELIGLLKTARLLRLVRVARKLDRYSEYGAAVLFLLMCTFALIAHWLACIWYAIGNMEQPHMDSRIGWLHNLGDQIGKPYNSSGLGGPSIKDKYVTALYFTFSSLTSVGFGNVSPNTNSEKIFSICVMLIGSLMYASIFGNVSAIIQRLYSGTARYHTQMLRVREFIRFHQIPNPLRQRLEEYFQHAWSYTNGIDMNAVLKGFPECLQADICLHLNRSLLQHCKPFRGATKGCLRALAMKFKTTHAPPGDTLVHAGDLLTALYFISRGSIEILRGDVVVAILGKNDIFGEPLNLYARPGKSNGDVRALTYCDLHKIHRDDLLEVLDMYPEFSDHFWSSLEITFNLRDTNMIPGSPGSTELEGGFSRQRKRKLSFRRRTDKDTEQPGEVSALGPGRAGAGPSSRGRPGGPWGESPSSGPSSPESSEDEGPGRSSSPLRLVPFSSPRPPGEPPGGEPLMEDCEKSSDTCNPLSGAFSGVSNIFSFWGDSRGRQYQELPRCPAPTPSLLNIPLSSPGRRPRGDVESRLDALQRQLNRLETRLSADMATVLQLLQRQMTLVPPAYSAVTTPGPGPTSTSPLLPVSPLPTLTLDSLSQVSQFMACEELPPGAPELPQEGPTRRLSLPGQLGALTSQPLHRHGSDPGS
- PROCEDURE_SUMMARY: hERG inhibition, IonWorks patch clamp electrophysiology
- PARTICULARS: 8-point curve from 11 μM
pIC50: −log10 of the molar value. Where a name gives a salt, the structure may show the parent alone.
MEASURED_ENDPOINT: pIC50

COMPOUND: CNCc1cc(Nc2ncc3c(=O)n(-c4c(Cl)cccc4Cl)ccc3n2)ccc1N1CCOCC1
ENDPOINT_RESULT: ≤ 5.00
--
COMPOUND: COc1cc(Nc2ncc3c(=O)n(-c4c(Cl)cccc4Cl)ccc3n2)ccc1N1CCNCC1 [Example 13, HCl]
ENDPOINT_RESULT: ≤ 5.00
--
COMPOUND: CC(C)N1CCN(c2ccc(Nc3ncc4c(=O)n(-c5c(Cl)cccc5Cl)ccc4n3)cc2)CC1
ENDPOINT_RESULT: 5.00 to 6.00
--
COMPOUND: CN(C)CCc1ccc(Nc2ncc3c(=O)n(-c4c(Cl)cccc4Cl)ccc3n2)cc1 [Example 11, HCl]
ENDPOINT_RESULT: 5.00 to 6.00
--
COMPOUND: COc1cc(Nc2ncc3c(=O)n(-c4c(Cl)cccc4Cl)ccc3n2)ccc1N1CCN(C)CC1 [Example 12, HCl]
ENDPOINT_RESULT: 5.00 to 6.00
--
COMPOUND: Cc1cn(-c2c(Cl)cccc2Cl)c(=O)c2cnc(Nc3ccc(N4CCNCC4)cc3)nc12
ENDPOINT_RESULT: ≤ 5.00
--
COMPOUND: CNCCOc1ccc(Nc2ncc3c(=O)n(-c4c(Cl)cccc4Cl)ccc3n2)cc1 [Example 16, HCl]
ENDPOINT_RESULT: ≤ 5.00
--
COMPOUND: O=c1c2cnc(Nc3ccc(N4CCOCC4)cc3)nc2ccn1-c1c(Cl)cccc1Cl
ENDPOINT_RESULT: ≤ 5.00
--
COMPOUND: Cc1cc(Nc2ncc3c(=O)n(-c4c(Cl)cccc4Cl)ccc3n2)ccc1N1CCNCC1
ENDPOINT_RESULT: 5.00 to 6.00
--
COMPOUND: O=c1c2cnc(Nc3ccc(N4CCNCC4)c(CO)c3)nc2ccn1-c1c(Cl)cccc1Cl
ENDPOINT_RESULT: ≤ 5.00
--
COMPOUND: CN1CCC(c2ccc(Nc3ncc4c(=O)n(-c5c(Cl)cccc5Cl)ccc4n3)cc2)CC1 [Example 10, HCl]
ENDPOINT_RESULT: 5.00 to 6.00
